The compounds listed here are annotated with their pIC50.
TARGET UNDER TEST: PD-L1 His protein / PD-1 Fc protein (Homo sapiens (Human), UniProt Q9NZQ7)
EXPERIMENT SUMMARY: HTRF Assay (PD-1/PD-L1 interaction)
Format: binding
RUN CONDITIONS: PD-L1 His 6 nM, PD-1 Fc 6 nM
The scale used: pIC50 is minus the common logarithm of the concentration in molar units.

| LINE NOTATION | TARGET UNDER TEST | pIC50 |
| --- | --- | --- |
| COC(=O)CNCc1ccc(-c2cccc(-c3ccnc(-c4cc5c(c(OC)c4)CN(C[C@H](C)O)CC5)c3Cl)c2Cl)nc1OC | PD-L1 His protein / PD-1 Fc protein (Homo sapiens (Human), UniProt Q9NZQ7) | 8.15 |
| COc1nc(-c2cccc(-c3ccnc(-c4ccc5nc([C@H]6N[C@@H]7CC[C@H]6C7)[nH]c5c4)c3Cl)c2Cl)ccc1CNC[C@@H]1CCC(=O)N1 | PD-L1 His protein / PD-1 Fc protein (Homo sapiens (Human), UniProt Q9NZQ7) | 8.59 |
| COc1nc(-c2cccc(-c3ccnc(-c4ccc5c(c4)CNC5)c3Cl)c2Cl)ccc1CNC[C@@H]1CCC(=O)N1 | PD-L1 His protein / PD-1 Fc protein (Homo sapiens (Human), UniProt Q9NZQ7) | 9.05 |

Qu. // fetch PD-L1 His protein / PD-1 Fc protein (Homo sapiens (Human), UniProt Q9NZQ7) pIC50 for `COc1cc(-c2ncnc(-c3cccc(-c4ccc(CNC5CCN(C(C)=O)CC5)c(OC)n4)c3Cl)c2C)ccc1CNC1CCN(C(C)=O)CC1`
Ans. 8.69

Qu. // fetch PD-L1 His protein / PD-1 Fc protein (Homo sapiens (Human), UniProt Q9NZQ7) pIC50 for `COc1cc(-c2nccc(-c3cccc(-c4ccc(CN5CC6(CNC(=O)C6)C5)c(OC)n4)c3Cl)c2Cl)cnc1CN1CC2(CNC(=O)C2)C1`
Ans. 9.34

Qu. // fetch PD-L1 His protein / PD-1 Fc protein (Homo sapiens (Human), UniProt Q9NZQ7) pIC50 for `COc1cc(-c2nccc(-c3ccnc(-c4cc(F)c(CNC5CCN(C(C)=O)CC5)c(OC)c4)c3Cl)c2Cl)cc(F)c1CNC1CCN(C(C)=O)CC1`
Ans. 8.34

====

TARGET UNDER TEST: PD-L1 His protein / PD-1 Fc protein (Homo sapiens (Human), UniProt Q9NZQ7)
EXPERIMENT SUMMARY: HTRF Assay (PD-1/PD-L1 interaction)
Type: binding
RUN CONDITIONS: PD-L1 His 6 nM, PD-1 Fc 6 nM
ENDPOINT: IC50 (nM)
Give the quantity in nM, number only.

Qu. # IC50 lookup, item `COc1cc(-c2nccc(-c3cccc(-c4ccc(CNC[C@@H]5CCC(=O)N5)c(OC)n4)c3Cl)c2Cl)cc(C)c1CNC[C@@H]1CCC(=O)N1`
Ans. 1.1

Qu. # IC50 lookup, item `COc1nc(-c2cccc(-c3ccnc(-c4ccc5c(c4)CN(CCNC[C@@H]4CCC(=O)N4)C5=O)c3Cl)c2Cl)ccc1CNC1CCN(C(C)=O)CC1`
Ans. 3.94

Qu. # IC50 lookup, item `COc1cc(CNC[C@H](C)O)cc(-c2nccc(-c3cccc(-c4ccc(CNC[C@H](C)O)c(OC)n4)c3Cl)c2Cl)c1`
Ans. 2.45

====

The compounds listed here are annotated with their IC50.
TARGET UNDER TEST: PD-L1 His protein / PD-1 Fc protein (Homo sapiens (Human), UniProt Q9NZQ7)
EXPERIMENT SUMMARY: HTRF Assay (PD-1/PD-L1 interaction)
Format: binding
RUN CONDITIONS: PD-L1 His 6 nM, PD-1 Fc 6 nM
Give the quantity in nM, number only.

| LINE NOTATION | IC50 (nM) |
| --- | --- |
| COc1nc(-c2cccc(-c3ccnc(-c4ccc5c(CNC[C@H](C)OC)cn(C)c5c4)c3Cl)c2Cl)ccc1CNC[C@@H]1CCC(=O)N1 | 10.3 |
| COCC(=O)N1CCC(NCc2ccc(-c3nccc(-c4cccc(-c5ccc(CNC6CCN(C(=O)COC)CC6)c(OC)n5)c4Cl)c3Cl)cc2OC)CC1 | 0.128 |
| COc1cc(-c2nccc(-c3cccc(NC(=O)c4ccc(CNCCO)cn4)c3C)c2Cl)ccc1CNCCO | 0.05 |
| COc1nc(-c2cccc(-c3ccnc(-c4ccc5c(c4)S(=O)(=O)CCN(C[C@@H]4CCC(=O)N4)C5)c3Cl)c2Cl)ccc1CNC[C@@H]1CCC(=O)N1 | 1.58 |
| COc1cc(-c2nccc(-c3cccc(-c4ccc(CN5CC6(COC6)C5)c(OC)n4)c3C(F)(F)F)c2Cl)ccc1CN1CC2(COC2)C1 | 70.3 |

Below: the item to evaluate.
Qu. # IC50 lookup, item `COc1cc(-c2nccc(-c3cccc(-c4ccc5c(CNC6CCN(C(C)=O)CC6)cn(C)c5n4)c3Cl)c2Cl)ccc1CN1CC2(C1)CN(C(C)=O)C2`
Ans. 1.46

====

TARGET UNDER TEST: UniProt:Q9NZQ7
EXPERIMENT SUMMARY: T cell activation luciferase reporter cell culture system (T Cell Activation Assay)
Format: cell-based
RUN CONDITIONS: luciferase reporter assay; PD-L1 aAPC/CHO-K1 cells with PD-1 effector Jurkat T cells
ENDPOINT: log10(EC50) (log10 of the value in nM)
Log scale reminder: EC50 in nM, then log10 taken.

| MOLECULE | TARGET UNDER TEST | MEASUREMENT |
| --- | --- | --- |
| COc1nc(-c2cccc(-c3nccc(-c4ccc(CNC[C@@H]5CCC(=O)N5)c(OC)n4)c3Cl)c2Cl)ccc1CNC[C@@H]1CCC(=O)N1 [Compound 575] | UniProt:Q9NZQ7 | 1.15 |
| COc1nc(-c2ccnc(-c3cccc(NC(=O)c4cn(C)c(=O)n(C)c4=O)c3Cl)c2Cl)ccc1CN1CC2(C1)CN(C(C)=O)C2 [Compound 731] | UniProt:Q9NZQ7 | 3.07 |
| COc1cc(-c2nccc(-c3cccc(-c4ccc(CNC[C@@H]5CCC(=O)N5)c(OC)n4)c3Cl)c2Cl)cc(F)c1CN[C@H]1C[C@](C)(O)C1 [Cmpd 79] | UniProt:Q9NZQ7 | 1.70 |

Below: the item to evaluate.
Qu. # log10(EC50) lookup, item COc1nc(-c2cccc(-c3ccnc(-c4cc(OC)c5nc(CNC6CCN(C(C)=O)CC6)cn5c4)c3Cl)c2Cl)ccc1CNC[C@@H]1CCC(=O)N1 [Example 318]
Ans. 1.50

====

TARGET UNDER TEST: human PD-L1 (Homo sapiens (Human), UniProt Q9NZQ7)
Sequence (Q9NZQ7 19-290): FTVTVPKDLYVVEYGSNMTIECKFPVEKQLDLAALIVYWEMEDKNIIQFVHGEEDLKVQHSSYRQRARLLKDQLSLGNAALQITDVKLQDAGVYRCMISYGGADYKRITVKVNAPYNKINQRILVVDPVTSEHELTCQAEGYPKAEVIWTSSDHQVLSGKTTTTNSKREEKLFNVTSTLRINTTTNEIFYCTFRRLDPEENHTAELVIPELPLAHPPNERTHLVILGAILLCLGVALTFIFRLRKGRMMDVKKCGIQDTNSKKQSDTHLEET
EXPERIMENT SUMMARY: T cell activation luciferase reporter cell culture system (T Cell Activation Assay)
Assay type: cell-based
RUN CONDITIONS: luciferase reporter assay; PD-L1 aAPC/CHO-K1 cells with PD-1 effector Jurkat T cells
Returns: string. Value is label 1 if measured EC50 is below 70 nM, and label 0 if it is greater than or equal to it.

Consider the following illustrative entries.
| LINE NOTATION | ANSWER LABEL |
| --- | --- |
| COc1nc(-c2cccc(-c3nccc(-c4ccc(CNC5CCN(C(C)=O)CC5)c(OC)n4)c3Cl)c2Cl)ccc1CN1CCC(O)CC1 | label 1 |
| COc1cc(-c2nccc(-c3cccc(-c4ccc(CNC[C@@H]5CCC(=O)N5)c(OC)n4)c3Cl)c2Cl)cc(F)c1CN1CC2(CNC(=O)C2)C1 | label 1 |
| COc1cc(-c2nccc(-c3cccc(-c4ccc(CNC5CCOCC5)c(OC)n4)c3C#N)c2Cl)ccc1CNC1CCOCC1 | label 0 |
| COc1cc(-c2nccc(-c3cccc(-c4ccc(CNCC5CCOCC5)c(OC)n4)c3Cl)c2Cl)ccc1CNCC1CCOCC1 | label 0 |
| COC(=O)CNCc1ccc(-c2cccc(-c3ccnc(-c4cc5c(c(OC)c4)CN(C[C@H](C)O)CC5)c3Cl)c2Cl)nc1OC | label 0 |

Now examine the next entry.
Qu. In the record for `COc1cc(-c2nccc(-c3cccc(NC(=O)c4ccc(CN5CC6(COC6)C5)cn4)c3Cl)c2Cl)ccc1CN1CC2(COC2)C1` , is EC50 less than 70 nM?
Ans. label 0

====

TARGET UNDER TEST: human PD-L1 (Homo sapiens (Human))
EXPERIMENT SUMMARY: T cell activation luciferase reporter cell culture system (T Cell Activation Assay)
Assay type: cell-based
RUN CONDITIONS: luciferase reporter assay; PD-L1 aAPC/CHO-K1 cells with PD-1 effector Jurkat T cells
The molecules listed here are annotated with their pEC50.
The scale used: pEC50 is minus the common logarithm of the concentration in molar units.

Examples with their reported pEC50 follow.
| LINE NOTATION | pEC50 |
| --- | --- |
| COc1nc(-c2ccnc(-c3cccc4c3CC[C@@H]4Nc3nc(OC)c(CNC4CCN(C(C)=O)CC4)cc3C(F)(F)F)c2Cl)ccc1CNC[C@@H]1CCC(=O)N1 | 6.92 |
| COc1cc(-c2nccc(-c3cccc(-c4ccc(CNC5CCN(C(C)=O)CC5)c(OC)n4)c3Cl)c2Cl)ccc1CN(C)C1CCN(C(C)=O)CC1 | 7.54 |
| COc1nc(-c2cccc(-c3nccc(-c4ccc(CNC5CCN(C(C)=O)CC5)c(OC)n4)c3Cl)c2Cl)ccc1CN1CC2(CNC(=O)C2)C1 | 7.61 |
| CNCc1ccc(-c2cccc(-c3ccnc(-c4cc(CNCC56CC(C(=O)O)(C5)C6)cc(OC)c4)c3Cl)c2Cl)nc1OC | 5.93 |
| COc1cc(-c2nccc(-c3cccc(-c4ccc(CNC5CCOCC5)c(OC)n4)c3Cl)c2Cl)cnc1CNC1CCOCC1 | 6.97 |

Below: the item to evaluate.
Qu. # pEC50 lookup, item `COc1cc(-c2nccc(-c3cccc(-c4ccc(CN5CCC(NC(C)=O)CC5)c(OC)n4)c3Cl)c2Cl)ccc1CNC1CCOCC1`
Ans. 7.28

src = patent US20240246964A1
